tested on: CEM cells HIV-1 protection, formazan growth assay; assay: NCI AIDS Antiviral Assay
Active and inactive are the calls of the source.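 Rule for the calls: active = compounds giving half or more protection of infected cells from virus-caused growth loss, again on retest; inactive = the rest.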
readout name: outcome

Some solved entries appear below for comparison.
Exercise: # lookup: outcome of `Clc1nc(Nc2nc3ccccc3[nH]2)nc(Cl)c1Cc1ccccc1`
Solution: inactive

Exercise: Tell me the measured outcome of `O=c1c2cccnc2ncn1CCCN1CCCCC1` , please.
Solution: inactive

Exercise: Quick check: outcome of `COc1ccc(C(=O)Nc2ccc(S(=O)(=O)NCC(=O)O)cc2)cc1` ?
Solution: inactive

Exercise: Suppose we examine the molecule C[Si](C)(C)OC1(C#N)C2C3CC4C2C(=O)C2C4C3C21 (stereo not given) ; what outcome value has been reported?
Solution: inactive

Exercise: So what's the measured outcome for this one? `Cc1cc2c(C=O)[nH]nc2c(C#N)c1C`
Solution: inactive

Next:
Exercise: Quick one: outcome of `CC(=O)N(C(C)=O)c1c(N)n(C)c(=O)[nH]c1=O` ?
Solution: inactive

Exercise: For the molecule `Cc1cc(NC(=O)c2ccc(N=Nc3c(S(=O)(=O)O)cc4cc(NC(=O)c5ccc(N)cc5)ccc4c3O)cc2)ccc1N=Nc1ccc2cc(S(=O)(=O)O)cc(S(=O)(=O)O)c2c1` , what outcome is on record?
Solution: active

Exercise: Sample `O=C(/C=C/c1ccc2c(c1)OCO2)N1CCCCC1` — what was its outcome?
Solution: inactive

Exercise: // query outcome value for entry C[C@]12CCC3(CC1C(=O)CC[C@@H]2OCc1ccccc1)OCCO3 (stereo not given in full)
Solution: active

Exercise: Param item = Cc1c(N)nc(C(CC(N)=O)NCC(N)C(N)=O)nc1C(=O)NC(C(=O)NC(C)C(O)C(C)C(=O)NC(C(=O)NCCc1nc(-c2nc(C(=O)NCCCNCCCCN)cs2)cs1)C(C)O)C(OC1OC(CO)C(O)C(O)C1OC1OC(CO)C(O)C(OC(N)=O)C1O)c1cnc[nH]1 (stereo not given) ; retrieve measured outcome.
Solution: inactive

---

tested on: CEM cells HIV-1 protection, formazan growth assay; experiment: NCI AIDS Antiviral Assay; settings: measured here: growth of uninfected CEM cells
readout name: pIC50
Conceptually, pIC50 converts a concentration in mol/L into minus its log10.

Exercise: Would you mind telling me what pIC50 value was observed for CC(=O)OC1CC[C@@]2(C)C(C1)CC(OC(C)=O)[C@@H]1C2CC(OC(C)=O)[C@]2(C)C(C(C)CC=C(c3ccc(Cl)cc3)c3ccc(Cl)cc3)CCC12 (stereo partly specified) ?
Solution: 4.24

Exercise: GET /values?readout=pIC50&item= O=C1Nc2ccccc2N=CC1NC(=O)C(c1ccccc1)c1ccccc1 (stereo unspecified)
Solution: 3.65

Exercise: Need pIC50 of `CC(C)(C)C1CCC2(CC1)CCN(N1CCCCCC1)CC2` , thanks.
Solution: 4.04

Further cases:
Exercise: I have this molecule here, C=CCN1CC2CON(C(=O)C(OC)(c3ccccc3)C(F)(F)F)C2C1C(C)C (stereo unspecified) , and I need its recorded pIC50.
Solution: 4.43

Exercise: What value of measured pIC50 is listed for O=C(Nc1ccccc1[N+](=O)[O-])C(=O)C(C(=O)c1ccccc1-c1ccccc1)C1OC(=O)c2ccccc21 (stereo unspecified) ?
Solution: 4.59

Exercise: Which pIC50 value is on record for `O=C(Nc1nc(C23CC4CC(CC(C4)C2)C3)cs1)c1cc2ccc(O)cc2oc1=O` ?
Solution: 5.13

Every entry's value here was drawn from PubChem BioAssay AID179.
